# Ki listing for each entry below
MEASURED TARGET: Beta-secretase 1 (Homo sapiens)
Sequence (P56817 whole entry, the tested form may be a part): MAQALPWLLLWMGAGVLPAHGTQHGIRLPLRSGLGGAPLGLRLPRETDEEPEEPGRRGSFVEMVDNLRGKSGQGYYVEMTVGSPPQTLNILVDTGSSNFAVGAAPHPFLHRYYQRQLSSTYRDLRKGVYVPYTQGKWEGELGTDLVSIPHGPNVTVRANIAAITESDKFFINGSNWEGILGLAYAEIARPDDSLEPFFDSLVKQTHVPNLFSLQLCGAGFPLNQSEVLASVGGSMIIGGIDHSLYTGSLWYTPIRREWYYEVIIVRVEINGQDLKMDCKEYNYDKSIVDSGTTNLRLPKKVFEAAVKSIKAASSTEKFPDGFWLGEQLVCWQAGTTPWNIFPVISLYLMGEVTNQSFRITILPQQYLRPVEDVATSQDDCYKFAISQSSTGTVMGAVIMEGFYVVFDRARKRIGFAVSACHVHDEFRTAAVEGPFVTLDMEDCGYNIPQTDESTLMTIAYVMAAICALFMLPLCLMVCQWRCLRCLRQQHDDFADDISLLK
EXPERIMENT NOTES: HTRF FRET Assay: The compounds of the invention were determined to be potent inhibitors of BACE-1 using the following assay.The following reagents were used in this assay. Na+-Acetate pH 5.0; 1% Brij-35; Glycerol; Dimethyl Sulfoxide (DMSO); Recombinant human soluble BACE-1 catalytic domain (>95% pure); APP Swedish mutant peptide substrate (QSY7-APPswe-Eu): QSY7-[…]-Europium-amide.A homogeneous time-resolved FRET assay can be used to determine IC50 values for inhibitors of the soluble human BACE-1 catalytic domain. This assay monitors the increase of 620 nm fluorescence that resulted from BACE-1 cleavage of an APPswedish APPswe mutant peptide FRET substrate (QSY7-[…]-Europium-amide). This substrate contains an N-terminal QSY7 moiety that serves as a quencher of the C-terminal Europium fluorophore (620 nm Em). In the absence of enzyme activity, 620 nm fluorescence is low in the assay and increased linearly over 3 hours in the presence of uninhibited BACE-1 enzyme. Inhibition of BACE-1 cleavage of the QSY7-APPswe-Eu substrate by inhibitors is manifested as a suppression of 620 nm fluorescence.

{"GIVEN SMILES": "C[C@@]1(c2cc(Nc3nccc4cc(C#N)cnc34)ccc2F)CS(=O)(=O)[C@@](CF)(C2CC2)C(N)=N1", "Ki": "1.3 nM"}
{"GIVEN SMILES": "COc1cnc2c(Nc3ccc(F)c([C@]4(C)CS(=O)(=O)[C@@](C)(C5CC5)C(N)=N4)c3)ccnc2c1", "Ki": "27 nM"}
{"GIVEN SMILES": "C[C@@]1(c2cc(Nc3ccnc4cc(F)cnc34)ncc2F)CS(=O)(=O)[C@@](C)(C2CC2)C(N)=N1", "Ki": "8.5 nM"}
{"GIVEN SMILES": "COc1cnc2c(Nc3ccc(F)c([C@]4(C)CS(=O)(=O)[C@@](C)(C5CC5)C(N)=N4)c3)ccnc2n1", "Ki": "40 nM"}
{"GIVEN SMILES": "CC#CCOc1cnc2c(Nc3cnc(F)c([C@]4(C)CS(=O)(=O)[C@@](C)(C5CC5)C(N)=N4)c3)nccc2c1", "Ki": "2.8 nM"}
{"GIVEN SMILES": "COc1cnc2c(Nc3cc([C@]4(C)CS(=O)(=O)[C@@](C)(C5CC5)C(N)=N4)c(F)cn3)ccnc2n1", "Ki": "5.2 nM"}
{"GIVEN SMILES": "CC#CCOc1cnc2c(Nc3cnc(F)c([C@]4(C)CS(=O)(=O)[C@@](C)(C5CC5)C(N)=N4)c3)nccc2n1", "Ki": "1.8 nM"}
{"GIVEN SMILES": "CC#CCOc1cnc2c(Nc3cc([C@]4(C)CS(=O)(=O)[C@@](C)(C5CC5)C(N)=N4)c(F)cn3)nccc2n1", "Ki": "1.5 nM"}
